For each of the compounds below, state its activity change, negative = inhibition.
Assay: Primary qHTS to identify inhibitors of SARS-CoV-2 cell entry (AID 1645846); also: nearly all actives have a fitted effect of over 45% in size
Details: SARS-CoV-2 pseudovirus cell entry assay, luminescence; at 57.1 µM (top of the series) unless noted
Records with an inconclusive call do not appear.
Hi! Could you send only the number? It should be in % [at 114 µM], unit omitted.

Specify measured activity change, negative = inhibition for C=C(C)C1CC=C(C)CC1 (stereo not given) .
-21.4

Specify measured activity change, negative = inhibition for O=c1c2c(c1=O)N(CCP(=O)(O)O)CCCN2 .
3.47

Specify measured activity change, negative = inhibition for CCC(Oc1ccccc1)C(=O)N[C@@H]1C(=O)N2[C@@H]1SC(C)(C)[C@@H]2C(=O)O (stereo not given in full) .
-26.6

###

Molecular target: Nuclear receptor subfamily 1 group I member 3 (Homo sapiens) (UniProt Q14994)
Sequence (Q14994 whole entry, looked up): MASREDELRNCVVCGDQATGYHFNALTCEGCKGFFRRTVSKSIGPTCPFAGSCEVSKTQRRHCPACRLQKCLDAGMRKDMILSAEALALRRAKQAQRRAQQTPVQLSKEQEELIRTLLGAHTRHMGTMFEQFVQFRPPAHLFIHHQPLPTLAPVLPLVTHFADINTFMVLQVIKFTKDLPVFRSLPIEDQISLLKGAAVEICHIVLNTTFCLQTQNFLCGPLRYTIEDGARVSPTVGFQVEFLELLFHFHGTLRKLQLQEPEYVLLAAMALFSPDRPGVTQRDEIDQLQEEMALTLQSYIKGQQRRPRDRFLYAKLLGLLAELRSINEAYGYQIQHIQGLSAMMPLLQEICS
Experiment: qHTS for Constitutive Androstane Receptor (CAR) Antagonist screened against the NCATS CANVASS Library (AID 1347372)
Conditions: HepG2-hCAR-CYP2B6 luciferase, CITCO-stimulated antagonist mode; series mostly up to 46.1 µM
Records with an inconclusive call do not appear. The source made the active and inactive calls. Calls follow the shape of the dose curve; as a rule, active = well fitted inhibition curve with a large enough effect; inconclusive = small, poorly fitted or top-dose-only effect; inactive = no such curve, though single readings can be large or run the other way. Starred links: 1 amine or outer side, 2 acyl side, 3 side chain; linkers in the order of their positions; H or OH if unused. Positions of bridges follow the written chain, without caps; N, C: chain ends. Non-standard residues stand in square brackets, D forms with d. Residues, ends and D or L forms follow the SMILES beside them. ξ: configuration not given here. *: point of attachment. X3 = C[C@@H](Oc1ccc([C@H](N[*:1])C(=O)[*:2])cc1)[C@]1(/C=C\C(=O)[*:3])CO1; d(aIle) = CC[C@H](C)[C@@H](N)C(=O)O; X2 = CC(C)[C@@H](O)C(C)C(=O)*; ξNMeF = CNC(Cc1ccccc1)C(=O)O; ξT = CC(O)C(N)C(=O)O; ξS = NC(CO)C(=O)O
Entry note: the call must match one of active, inactive

GET /call?item= CCCCC1CC[C@H]2CCCC(CCC)N12 (stereo not given in full) returns the recorded outcome of this test.
inactive

GET /call?item= CC[C@H](C)[C@H]1NC(=O)[C@@H](NC(=O)C(C)[C@H](O)C(C)C)[C@@H](C)OC(=O)C2COC(=O)CNC(=O)/C=C\[C@]3(CO3)[C@@H](C)Oc3ccc(cc3)[C@H](NC1=O)C(=O)N(C)C(Cc1ccccc1)C(=O)NC(C(C)O)C(=O)N2 (stereo not given in full) (X2-T[d(aIle)][X3][ξNMeF][ξT][ξS]; ester 1-C; linker 3-6 via G) returns the recorded outcome of this test.
inactive

GET /call?item= CC[C@@H]1CN2CCc3c([nH]c4cccc(OC)c34)[C@@H]2C[C@@H]1/C(=C\OC)C(=O)OC returns the recorded outcome of this test.
inactive

GET /call?item= CO[C@@H](/C=C/CC/C=C/C(=O)O)[C@@H](O)[C@H](C)/C=C(\C)[C@H](O)[C@H](C)C(=O)CCCC1CC(=O)NC(=O)C1 returns the recorded outcome of this test.
inactive

GET /call?item= COC1C(O)C(C)OC(OC2C(Oc3cccc4c(O)c5c(=O)oc6ccc(C)c7c(=O)oc(c34)c5c67)OC(C)C(O)C2O)C1O (stereo not given) returns the recorded outcome of this test.
active

###

Molecular target: Cytochrome P450 3A4 (Homo sapiens) (UniProt P08684)
Sequence (P08684 whole entry, looked up): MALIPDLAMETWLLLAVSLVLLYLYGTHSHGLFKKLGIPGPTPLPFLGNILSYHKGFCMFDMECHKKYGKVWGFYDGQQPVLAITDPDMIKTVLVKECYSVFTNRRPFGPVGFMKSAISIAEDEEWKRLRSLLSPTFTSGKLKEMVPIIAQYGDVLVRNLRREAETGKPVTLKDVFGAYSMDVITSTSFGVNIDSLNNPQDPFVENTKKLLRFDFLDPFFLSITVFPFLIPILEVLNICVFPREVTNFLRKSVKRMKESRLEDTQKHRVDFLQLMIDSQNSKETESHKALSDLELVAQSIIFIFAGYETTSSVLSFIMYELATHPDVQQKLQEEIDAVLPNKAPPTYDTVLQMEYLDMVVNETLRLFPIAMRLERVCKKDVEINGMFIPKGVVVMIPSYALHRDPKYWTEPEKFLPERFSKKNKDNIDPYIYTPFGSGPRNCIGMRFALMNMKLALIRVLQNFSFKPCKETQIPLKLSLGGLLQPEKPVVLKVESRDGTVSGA
Assay: qHTS Assay for Activators of Cytochrome P450 3A4 (AID 885); also: nearly all actives have a fitted effect of over 65% in size
Conditions: recombinant CYP3A4, Luciferin-PPXE luminescence, 60 min; series mostly up to 57.1 µM
Active and inactive are the calls of the source. The call rests on the fitted dose curve; in most records, active means well fitted activation curve with a large enough effect; inconclusive means small, poorly fitted or top-dose-only effect; inactive means no such curve, though single readings can be large or run the other way.
measurementKind: outcome

Take a look at these entries with their results.
> print(dat)
                                   molecule  valuemeasured
1  CC(C)c1cc2c(c(O)c1O)[C@]1(C(=O)O)CCCC(C)(C)C1CC2 (stereo partly specified)       inactive
2  CC(C)CN1CC[C@@]2(CCCN(C(=O)Oc3ccccc3)C2)C1       inactive
3               c1cc(N2CCCC3(CCNCC3)C2)ccn1       inactive
4               c1ccc(N2CCCC3(CCNCC3)C2)cc1       inactive
5  C[C@H]1CCCC(=O)CCC/C=C/c2cc(O)cc(O)c2C(=O)O1       inactive

Specify measured outcome for CC(C)C[C@H]1C(=O)N2CCC[C@@H]2[C@@]2(O)O[C@](NC(=O)[C@@H]3C=C4c5cccc6[nH]cc(c56)C[C@@H]4N(C)C3)(C(C)C)C(=O)N12 .
inactive

Specify measured outcome for CC1(C)C(O)CC(O)[C@]2(C)C1CC(=O)[C@]1(C)C2CC[C@@]2(C)C(c3ccoc3)OC(=O)C3OC321 (stereo partly specified) .
inactive

Specify measured outcome for CC(C)CN1CCCC2(CCN(C(=O)c3ccncc3)CC2)C1 .
inactive

Specify measured outcome for CCCCCCCCCc1ccc(O)cc1 .
inactive

Specify measured outcome for COc1c(CC=C(C)C)c2c(c3oc(=O)c(-c4ccc(O)cc4)c(O)c13)C=CC(C)(C)O2 .
inactive

Specify measured outcome for c1cnc(N2CC[C@@]3(CCCNC3)C2)nc1 .
inactive

###

Molecular target: Ubiquitin carboxyl-terminal hydrolase 1 (Homo sapiens)
Assay: Inhibitors of USP1/UAF1: Pilot qHTS (AID 504865); also: nearly all actives have a fitted effect of over 35% in size
Details: purified USP1/UAF1, Ub-rhodamine cleavage fluorescence; series mostly up to 114 µM
Results filed as inconclusive are left out. The source made the active and inactive calls. Calls come from the whole dose curve; as a rule, active = well fitted inhibition curve with a large enough effect; inconclusive = small, poorly fitted or top-dose-only effect; inactive = flat fitted curve, though single readings scatter.
Entry note: the call must match one of active, inactive

GET /call?item= C[N+]1([O-])[C@@H]2CC[C@H]1CC(OC(=O)[C@@H](CO)c1ccccc1)C2 (stereo partly drawn) returns the recorded outcome of this test.
inactive

GET /call?item= CC[C@H](CO)NC(=O)[C@H]1C=C2c3cccc4[nH]cc(c34)C[C@@H]2N(C)C1 returns the recorded outcome of this test.
active

GET /call?item= O=C(O)c1nn(Cc2ccc(Cl)c(Cl)c2)c2ccccc12 returns the recorded outcome of this test.
inactive

GET /call?item= C/C=C/c1ccc2c(c1)OCO2 returns the recorded outcome of this test.
inactive

GET /call?item= CC1CC[C@@]2(NC1)O[C@@H]1C[C@H]3C4CC=C5C[C@@H](O)CC[C@]5(C)C4CC[C@]3(C)[C@H]1[C@@H]2C (stereo partly drawn) returns the recorded outcome of this test.
inactive

GET /call?item= CNc1ccccc1C(=O)O returns the recorded outcome of this test.
inactive

GET /call?item= CC(N)C(O)c1ccc(O)c(O)c1 (stereo not drawn) returns the recorded outcome of this test.
inactive

GET /call?item= CC1=C2C3OC(=O)C(C)C3CC[C@@]2(C)C=CC1=O (stereo partly drawn) returns the recorded outcome of this test.
inactive

###

Biological target: Rap guanine nucleotide exchange factor 4 (Homo sapiens) (UniProt Q8WZA2)
Sequence (Q8WZA2 whole entry, looked up): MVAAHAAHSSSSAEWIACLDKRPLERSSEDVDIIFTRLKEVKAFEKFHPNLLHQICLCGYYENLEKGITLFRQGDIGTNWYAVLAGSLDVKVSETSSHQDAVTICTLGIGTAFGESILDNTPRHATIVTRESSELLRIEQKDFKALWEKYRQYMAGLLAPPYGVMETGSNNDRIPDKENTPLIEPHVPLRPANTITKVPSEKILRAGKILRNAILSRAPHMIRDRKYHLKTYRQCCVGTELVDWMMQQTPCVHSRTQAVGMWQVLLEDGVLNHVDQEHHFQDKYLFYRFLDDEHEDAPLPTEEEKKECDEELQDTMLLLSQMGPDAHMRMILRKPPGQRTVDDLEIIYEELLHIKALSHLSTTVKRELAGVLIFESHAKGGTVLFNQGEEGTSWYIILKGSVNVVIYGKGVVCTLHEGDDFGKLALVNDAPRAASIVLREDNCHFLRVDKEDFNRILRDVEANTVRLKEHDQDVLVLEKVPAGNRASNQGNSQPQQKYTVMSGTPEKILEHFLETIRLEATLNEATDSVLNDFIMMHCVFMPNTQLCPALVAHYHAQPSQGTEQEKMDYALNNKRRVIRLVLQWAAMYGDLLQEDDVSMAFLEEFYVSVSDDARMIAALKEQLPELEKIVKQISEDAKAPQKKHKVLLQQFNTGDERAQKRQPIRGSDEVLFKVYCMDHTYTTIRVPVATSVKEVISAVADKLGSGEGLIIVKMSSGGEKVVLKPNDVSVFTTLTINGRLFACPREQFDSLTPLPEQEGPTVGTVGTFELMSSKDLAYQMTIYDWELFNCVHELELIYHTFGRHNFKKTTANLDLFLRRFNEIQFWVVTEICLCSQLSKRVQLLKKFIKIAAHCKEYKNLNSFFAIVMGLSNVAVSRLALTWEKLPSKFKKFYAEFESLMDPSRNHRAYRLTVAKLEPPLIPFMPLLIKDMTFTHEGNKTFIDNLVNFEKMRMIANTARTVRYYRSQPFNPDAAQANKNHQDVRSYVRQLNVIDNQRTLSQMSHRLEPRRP
Assay: Confirmatory qHTS for antagonist of cAMP-regulated guanine nucleotide exchange factor 4 (EPAC2) (AID 1645885); also: nearly all actives have a fitted effect of over 25% in size; as to activity change, negative = inhibition: % is scaled to controls: 0 for no effect and ±100 for the full control effect
Conditions: EPAC2 Rap1B-BODIPY-GDP exchange fluorescence, biochemical; series mostly up to 114 µM
Results filed as inconclusive are left out. Activity calls are given as the source filed them. Calls follow the shape of the dose curve; as a rule, active = well fitted inhibition curve with a large enough effect; inconclusive = small, poorly fitted or top-dose-only effect; inactive = no such curve, though single readings can be large or run the other way.
measurementKind: activity change, negative = inhibition

Take a look at these entries with their results.
> print(dat)
                                   compound                         measurementkind                  valuemeasured
1  O=C1NC(=O)N(Cc2ccc(F)cc2)C(=O)/C1=C\c1ccc([N+](=O)[O-])s1  activity change, negative = inhibition                       inactive
2  CCCCN1C(=O)/C(=C/c2ccc(N(C)C)cc2)C(=O)N(Cc2ccco2)C1=O  activity change, negative = inhibition  35.5% [at 12.7 µM] (inactive)
3  COCCNC(=O)c1c(N)n(CCC(C)C)c2nc3ccccc3nc12  activity change, negative = inhibition  -8.1% [at 12.7 µM] (inactive)
4            Nc1cc(Cl)c2nonc2c1[N+](=O)[O-]  activity change, negative = inhibition  1.82% [at 12.7 µM] (inactive)
5  CCOC(=O)[C@]12Cc3cc(Cl)ccc3[C@H]1N(C1CCCCC1)C(=O)c1ccccc12  activity change, negative = inhibition                       inactive

Specify measured activity change, negative = inhibition for CCCNC1=C(C)C(=O)C2=C(C1=O)C(COC(N)=O)[C@]1(OC)C3NC3CN21 (stereo not given in full) .
inactive

Specify measured activity change, negative = inhibition for O=C1NC(=O)N(Cc2ccco2)C(=O)/C1=C\c1cccn1CCOc1ccc(Cl)cc1 .
-27.2% [at 12.7 µM] (inactive)

Specify measured activity change, negative = inhibition for Cn1cccc1/C=C1/C(=O)NC(=S)N(Cc2ccc(F)cc2)C1=O .
-22.8% [at 12.7 µM] (inactive)

Specify measured activity change, negative = inhibition for Oc1c(Cl)cccc1Cc1cc(Cl)cc(Cl)c1O .
inactive

Specify measured activity change, negative = inhibition for COCCCn1c(N)c(C(=O)NCCC(C)C)c2nc3ccccc3nc21 .
-14.1% [at 12.7 µM] (inactive)
